Target: Bcat-Halo (UniProt P35222)
Sequence (P35222 whole entry): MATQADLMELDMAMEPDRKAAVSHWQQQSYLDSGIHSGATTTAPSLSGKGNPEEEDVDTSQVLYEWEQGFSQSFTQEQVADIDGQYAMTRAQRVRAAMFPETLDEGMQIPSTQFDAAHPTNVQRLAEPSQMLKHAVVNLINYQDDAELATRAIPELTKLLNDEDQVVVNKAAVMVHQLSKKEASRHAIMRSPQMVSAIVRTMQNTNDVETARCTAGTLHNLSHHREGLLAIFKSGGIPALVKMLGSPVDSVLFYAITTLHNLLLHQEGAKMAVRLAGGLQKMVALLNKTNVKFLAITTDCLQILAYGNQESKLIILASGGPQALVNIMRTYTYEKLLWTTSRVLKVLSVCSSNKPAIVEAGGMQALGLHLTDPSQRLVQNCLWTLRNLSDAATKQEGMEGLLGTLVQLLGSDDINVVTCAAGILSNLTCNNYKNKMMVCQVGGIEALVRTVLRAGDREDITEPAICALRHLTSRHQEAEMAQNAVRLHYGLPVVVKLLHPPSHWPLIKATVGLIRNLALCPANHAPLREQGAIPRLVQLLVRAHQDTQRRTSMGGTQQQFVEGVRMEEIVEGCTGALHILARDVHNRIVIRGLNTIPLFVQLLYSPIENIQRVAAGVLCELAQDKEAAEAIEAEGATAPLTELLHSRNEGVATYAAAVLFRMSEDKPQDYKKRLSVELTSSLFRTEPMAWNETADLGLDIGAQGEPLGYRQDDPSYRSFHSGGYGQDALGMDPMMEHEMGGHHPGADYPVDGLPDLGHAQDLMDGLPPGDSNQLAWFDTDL
Test: NanoBRET Abs IC50 (absolute IC50) in HEK293 cells, Bcat-Halo / TCF4-Luc engagement
Starred links: 1 amine or outer side, 2 acyl side, 3 side chain; linkers in the order of their positions; H or OH if unused. Positions of bridges follow the written chain, without caps; N, C: chain ends. Non-standard residues stand in square brackets, D forms with d. Primed or numbered codes have the meaning given here. PyrS2″ = (S)-3-amino-1-((pent-4-en-1-yloxy)carbonyl)pyrrolidine-3-carboxylic acid (stapling residue), C=CCCCOC(=O)N1CC[C@@](N[*:1])(C(=O)[*:2])C1; TfeGA = (S)-2-amino-3-((carboxymethyl)(2,2,2-trifluoroethyl)amino)propanoic acid, O=C([C@H](CN(CC(=O)[*:3])CC(F)(F)F)N[*:1])[*:2]; B5(3) = 2,2-bis(4-pentenyl)glycine (stitching residue), C=CCCCC(CCCC=C)(N[*:1])C(=O)[*:2]; Phe(2-Cl) = N[C@@H](Cc1ccccc1Cl)C(=O)O; Bta = N[C@@H](Cc1csc2ccccc12)C(=O)O; αAllylPro = C=CC[C@@]1(C(=O)O)CCCN1; tBuAla = CC(C)(C)C[C@H](N)C(=O)O

- Binder: "Ac-[αAllylPro]D[tBuAla][B5(3)]D[TfeGA]AAFF[PyrS2″][Phe(2-Cl)][Bta]Q-NH2 (staple 1-4, 4-11) [I-923]"
  IC50: "6 µM"
